- System Name: M6
- Test: ELISA on coated antigen, column M6

{"columns": ["Binder", "absorbance at 490 nm"],
 "data": [
  ["PDL1-23E10 (scFv, V domains shown) VH: QMQLVESGAEVKKPGSSVKVSCKVSGENFRSHAISWVRQAPGQGLEWMGRIIPIVGLADYPQKFQGRVTISADESTGTAYMDLSSLRSEDTAVYYCVTGRPPWHWGQGILITVSS VL: QLVLTQPPSVSGAPGQRVTISCTGSSSNIGAGYDVHWYQQLPGTAPKLLIYSNRNRPSGVPDRFSGSKSGTSASLAITGLQAEDEADYYCQSYDSSLSGPNYVFGTGTKVTVL", 2.2],
  ["PDL1-31D9 (antibody, V domains shown, Only FR/CDR pieces are tied to the clone) VH: QMQLVESGGGLVQPGGSLRLSCSASGFTFSSYVMHWVRQAPGKGLEYVSAISSNGGSTYYADSVKGRFTISRDNSKNTLYLQMSSLRSEDTAVYYCAREHFSTYSYGVDVWGPGTTVTVSS VL: DIVMTQTPLSLPVTPGEPASISCRSSQSLLDSDDGNTYLDWYLQKPGQSPQLLIYMISFRASGVPDRFSGSGSGTDFTLKISRVEAEDSGIYYCMQRVEFPYTFGQGTKLEIK", 1.9],
  ["PDL1-22B10 (antibody, V domains shown, Only FR/CDR pieces are tied to the clone) VH: QVQLVQSGAEVKKPGSSVKVSCRASGGTFSSYAISWVRQAPGQGLEWMGRIIPILGIANYAQKFQGRVTITADKSTSTAYMELSSLRSEDTAVYYCARDFVLSGSATVFDPWGQGTLVTVSS VL: QFVLTQPPSVSGAPGQRVTISCTGSSTNIGAGYDVHWYQQLPGKAPKVVIYGNSNRPSGVLDRFSASKSATSASLAITGLQAEDEADYYCQSYDSSLSGYVFGTGTKVTVL", 2.5],
  ["PDL1-30B1 (antibody, V domains shown, Only FR/CDR pieces are tied to the clone) VH: QVQLVESGGGVVQPGRSLRLSCAASGFTFSSYAMHWVRQGPGKGLEWVAVISYDGSNEFYADSVKGRFTISRDNSKNTLYLQMNSLRAEDTAVYYCARGDYNGVYMDVWGQGTTVTVSS VL: DIVMTQTPLSLSVTPGQPASISCKSSQSLLHSDGKTYLYWYLQKPGQSPQLLIYEVSKRFSGVPDRFSGSGSGTDFTLKIGRVEAEDVGVYYCMQGLHLPYTFGQGTKLEIK", 2.6],
  ["PDL1-31E6 (antibody, V domains shown, Only FR/CDR pieces are tied to the clone) VH: QVQLVQSGAEVKKPGSSVKVSCKASGGTFSSYAISWVRQAPGQGLEWMGGIIPIFGTANYAQKFQGRVTITADESTSTAYMELSSLRSEDTAVYYCARGGRSFGAFDSWGQGALVTVSS VL: DIQMTQSPATLSLSPGERATLSCTASQSISSYLAWYQQKPGQAPRLLIYDSSNRATGIPARFSGSGSGTAFTLTISSLEPEDFAVYFCQQRGQWPLTFGGGTKVDIK", 2.5]
]}
